# MEASUREMENT_DESCRIPTION: BET inhibitor-based combinations targeting novel dependencies in MECOM-rearranged (r) AML: HNT-34 cell line (AID 2202234); further: nearly all actives have a fitted effect of over 35% in size
# CONDITION_INFO: HNT-34 AML viability, CellTiter-Glo luminescence, 48 h; series mostly up to 46 µM
Results filed as inconclusive are left out. Activity calls are given as the source filed them. The call rests on the fitted dose curve; in most records, active means well fitted inhibition curve with a large enough effect; inconclusive means small, poorly fitted or top-dose-only effect; inactive means no such curve, though single readings can be large or run the other way.
Classes used: T (active), F (inactive)

COMPOUND: Cc1nnc(C(=O)NC(C)(C)c2nc(C(=O)NCc3ccc(F)cc3)c(O)c(=O)n2C)o1
LABEL: F
//
COMPOUND: Cc1cc(C(C)Nc2ccccc2)c2nc(N3CCOCC3)cc(=O)n2c1 (centres undefined)
LABEL: T
//
COMPOUND: CNC1CCC(N(Cc2cccc(-c3ccncc3)c2)C(=O)c2sc3c(F)ccc(F)c3c2Cl)CC1 (centres undefined)
LABEL: T
//
COMPOUND: COC[C@H](NC(=O)c1cnc(C)s1)C(=O)N[C@@H](COC)C(=O)N[C@@H](Cc1ccccc1)C(=O)[C@@]1(C)CO1
LABEL: T
//
COMPOUND: O=[N+]([O-])c1ccc(Nc2ccccc2-c2ccccc2)c2nonc12
LABEL: T
//
COMPOUND: Cc1cccc(-c2[nH]ncc2-c2ccc3ncccc3n2)n1
LABEL: T
//
COMPOUND: CN(c1ncccc1CNc1nc(Nc2ccc3c(c2)CC(=O)N3)ncc1C(F)(F)F)S(C)(=O)=O
LABEL: T
//
COMPOUND: CN(CCOc1ccc(CC2SC(=O)NC2=O)cc1)c1ccccn1 (centres undefined)
LABEL: F
//
COMPOUND: N#Cc1c(O)c2c(-c3ccc(-c4ccccc4O)cc3)csc2[nH]c1=O
LABEL: F

###

# SYSTEM: Cellular tumor antigen p53 (Homo sapiens) (UniProt P04637)
# Sequence (P04637 whole entry, looked up): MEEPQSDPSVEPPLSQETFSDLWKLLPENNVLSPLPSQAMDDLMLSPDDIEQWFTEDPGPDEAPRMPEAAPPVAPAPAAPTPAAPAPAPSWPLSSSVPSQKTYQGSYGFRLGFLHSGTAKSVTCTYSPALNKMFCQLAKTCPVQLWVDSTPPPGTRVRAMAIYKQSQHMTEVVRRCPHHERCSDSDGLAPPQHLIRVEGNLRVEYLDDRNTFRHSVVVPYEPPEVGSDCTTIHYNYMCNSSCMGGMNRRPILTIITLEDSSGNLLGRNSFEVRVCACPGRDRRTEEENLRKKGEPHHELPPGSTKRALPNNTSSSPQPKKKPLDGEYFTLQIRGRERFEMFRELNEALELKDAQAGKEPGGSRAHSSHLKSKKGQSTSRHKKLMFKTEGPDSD
# MEASUREMENT_DESCRIPTION: Primary qHTS for small molecule compounds that upregulate eGFP-tagged delta133p53alpha (in N-terminal) cells. (AID 2060322);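 further: cells pre-induced with doxycycline then dosed without doxycycline; 0% = DMSO vehicle and 100% = reference activator; nearly all actives have a fitted effect of over 75% in size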
# CONDITION_INFO: NCI-H358 eGFP-delta133p53alpha fluorescence, 24 h; stronger effect = higher value
Results filed as inconclusive are left out.
Property: activation; scope: individual compounds

COMPOUND: CO[C@H]1/C=C\O[C@@]2(C)Oc3c(C)c(O)c4c(O)c(c5c(nc6cc(C)ccn65)c4c3C2=O)NC(=O)/C(C)=C\C=C/[C@H](C)[C@H](O)[C@@H](C)[C@@H](O)[C@@H](C)[C@H](OC(C)=O)[C@@H]1C
activation [%]: -1.91
--
COMPOUND: CC(C)=CCC[C@](C)(O)[C@H]1CC[C@]2(C)[C@@H]1[C@H](O)CC1[C@@]3(C)CC[C@H](O)C(C)(C)[C@@H]3[C@@H](O[C@@H]3O[C@H](CO)[C@@H](O)[C@H](O)[C@H]3O[C@@H]3O[C@H](CO)[C@@H](O)[C@H](O)[C@H]3O)C[C@]12C (some centres not stated)
activation [%]: -11.6
--
COMPOUND: OC[C@H](Cc1ccccc1)Nc1nc(Oc2ccc3c(c2)CCC3)nc2c1ncn2Cc1ccc(-c2ccccc2)cc1
activation [%]: -44.8
--
COMPOUND: COC1=CC(=O)O/C1=C(/OC)[C@@H]1O[C@H]1c1ccccc1
activation [%]: -3.05
--
COMPOUND: N#Cc1cc(NC(=O)C(=O)O)c(Cl)c(NC(=O)C(=O)O)c1
activation [%]: 0.565
--
COMPOUND: NC(=O)C1(N2CCCCC2)CCN(CCCC(=O)c2ccc(F)cc2)CC1
activation [%]: 14.2
--
COMPOUND: CC(=O)O[C@H]1C[C@@](O)(C(C)C)[C@@H]2[C@@H](OC(=O)c3ccc(O)cc3)CC(C)=CC[C@@]12C
activation [%]: 21.4

###

# MEASUREMENT_DESCRIPTION: BET inhibitor-based combinations targeting novel dependencies in MECOM-rearranged (r) AML: UCSD-AML1 cell line (AID 2202235); further: nearly all actives have a fitted effect of over 40% in size; further: potency means the concentration at half of the fitted maximal effect
# CONDITION_INFO: UCSD-AML1 AML cells viability, CellTiter-Glo, 48 h; series mostly up to 46 µM
Inconclusive results are not listed. Calls of active or inactive are those of the source. Calls follow the shape of the dose curve; as a rule, active = well fitted inhibition curve with a large enough effect; inconclusive = small, poorly fitted or top-dose-only effect; inactive = no such curve, though single readings can be large or run the other way.
METRIC_NAME: Potency

MOLECULE: CNC(=O)c1ccc(Nc2ncc(C(F)(F)F)c(NCc3nccnc3N(C)S(C)(=O)=O)n2)cc1
METRIC_NAME: Potency
RECORDED_RESULT: 2630 nM (active)
//
MOLECULE: CC(C)C[C@H](NC(=O)[C@H](Cc1ccccc1)NC(=O)c1cnccn1)B(O)O
METRIC_NAME: Potency
RECORDED_RESULT: 18.6 nM (active)
//
MOLECULE: C[C@@H]1CN(Cc2ccc(F)cc2)[C@@H](C)CN1C(=O)c1cc2c(C(=O)C(=O)N(C)C)cn(C)c2cc1Cl
METRIC_NAME: Potency
RECORDED_RESULT: inactive
//
MOLECULE: C=C1C[C@@]2(O)O[C@@]3(C[C@H]2C(C)C)[C@@H](C)CC[C@@H]13
METRIC_NAME: Potency
RECORDED_RESULT: inactive
//
MOLECULE: CNC(=O)c1ccccc1Nc1nc(Nc2ccc3c(c2OC)CCC[C@@H](N2CCN(CCO)CC2)C3)ncc1Cl
METRIC_NAME: Potency
RECORDED_RESULT: inactive
//
MOLECULE: CC12CC3CC(C)(C1)CC(N)(C3)C2
METRIC_NAME: Potency
RECORDED_RESULT: inactive
//
MOLECULE: Cc1ccc(C(C)(O)c2nc3ccccc3s2)c(C)c1 (centres undefined)
METRIC_NAME: Potency
RECORDED_RESULT: inactive
//
MOLECULE: Fc1cc(-c2cccc3ncc(-c4cnn(C5CCNCC5)c4)nc23)cc(F)c1CN1CCOCC1
METRIC_NAME: Potency
RECORDED_RESULT: 3320 nM (active)
//
MOLECULE: CN(CCOc1ccc(NS(C)(=O)=O)cc1)CCc1ccc(NS(C)(=O)=O)cc1
METRIC_NAME: Potency
RECORDED_RESULT: inactive

###

# SYSTEM: Retinaldehyde dehydrogenase 3 (Homo sapiens) (UniProt P47895)
# MEASUREMENT_DESCRIPTION: qHTS for Inhibitors of the Aldehyde Dehydrogenase Family (ALDH1A3) Validation screen (AID 2061312); further: nearly all actives have a fitted effect of over 45% in size
# CONDITION_INFO: ALDH1A3 enzyme inhibition qHTS validation, fluorescence; series mostly up to 84.7 µM
Records with an inconclusive call do not appear. Active and inactive are the calls of the source. Calls follow the shape of the dose curve; as a rule, active = well fitted inhibition curve with a large enough effect; inconclusive = small, poorly fitted or top-dose-only effect; inactive = no such curve, though single readings can be large or run the other way.
Outcomes: t (active), f (inactive)

COMPOUND: NCc1c[nH]c(=S)n1[C@@H]1CCc2c(F)cc(F)cc2C1
LABEL: f
//
COMPOUND: O=C(c1c2ccccc2cc2ccccc12)N1CCC(N2CCC[C@@H](C(=O)N3CCOCC3)C2)CC1
LABEL: f
//
COMPOUND: O=[N+]([O-])c1ccc(-[n+]2nc(-c3ccccc3)nn2-c2ccc(I)cc2)cc1
LABEL: t
//
COMPOUND: O=C(Nc1ccc2[nH]c(=O)oc2c1)C(=O)N1CCC(Cc2ccc(F)cc2)CC1
LABEL: f
//
COMPOUND: N#Cc1cc2nc(O)c(O)nc2cc1[N+](=O)[O-]
LABEL: f
//
COMPOUND: CC[C@H](C)C(=O)O[C@H]1CCC=C2C=C[C@H](C)[C@H](CC[C@@H]3C[C@@H](O)CC(=O)O3)[C@H]21
LABEL: f
//
COMPOUND: CN(CC[C@@H](Oc1ccc(C(F)(F)F)cc1)c1ccccc1)CC(=O)O
LABEL: f
//
COMPOUND: CC1=C(C(=O)OC2CCCCC2)C(c2ccc([N+](=O)[O-])cc2)C2=C(CC(C)(C)CC2=O)N1 (centres undefined)
LABEL: t
//
COMPOUND: COc1cc(O)c2c(c1)C1OC1C[C@H](O)[C@H](O)C(=O)/C=C\C[C@H](C)OC2=O (some centres undefined)
LABEL: f

###

# MEASUREMENT_DESCRIPTION: BET inhibitor-based combinations targeting novel dependencies in MECOM-rearranged (r) AML: AML-191 cell line (AID 2202236; further: nearly all actives have a fitted effect of over 35% in size; further: potency means the concentration at half of the fitted maximal effect)
# CONDITION_INFO: AML-191 viability, CellTiter-Glo luminescence, 48 h; series mostly up to 46 µM
Inconclusive results are not listed. Calls of active or inactive are those of the source. Calls follow the shape of the dose curve; as a rule, active = well fitted inhibition curve with a large enough effect; inconclusive = small, poorly fitted or top-dose-only effect; inactive = flat fitted curve, though single readings scatter.

COMPOUND: CC1CNc2c(cccc2S(=O)(=O)N[C@@H](CCCN=C(N)N)C(=O)N2CC[C@@H](C)C[C@@H]2C(=O)O)C1 (stereo not given in full)
Potency: inactive
--
COMPOUND: O=C1CCCC(=O)C1C(=O)c1ccc(C(F)(F)F)cc1[N+](=O)[O-]
Potency: inactive
--
COMPOUND: CCN(c1cc(-c2ccc(CN3CCOCC3)cc2)cc(C(=O)NCc2c(C)cc(C)[nH]c2=O)c1C)C1CCOCC1
Potency: inactive
--
COMPOUND: COc1nccc(-c2c(-c3ccc(F)cc3)ncn2C2CCC(O)CC2)n1 (stereo not given)
Potency: 18.6 µM (active)
--
COMPOUND: Cc1cnc(C(=O)O)c[n+]1[O-]
Potency: inactive
